Please respond with reported selectivity ratio at 48 h for every item in the list.
Test: Selectivity index, ratio of Cytotoxicity against African green monkey Vero cells assessed as reduction in cell viability after 48 hrs by SRB assay to Antiviral activity against acyclovir-sensitive Herpes simplex virus 1 KOS infected in African green monkey Vero cells assessed as inhibition of viral replication after 48 hrs by naphthol blue-black staining-based plaque reduction assay
Format: toxicity
Details: Vero cells infected with HSV-1 KOS, read-out: Ratio CC50/IC50
Reply with the value as a number alone.

IN: GET /values?readout=selectivity ratio at 48 h&item= C[C@]12CC[C@H](NC(=O)CNc3ccc(Cl)cc3)C[C@H]1CC[C@@H]1[C@@H]2CC[C@]2(C)[C@@H](C3=CC(=O)OC3)CC[C@]12O
OUT: 208

IN: GET /values?readout=selectivity ratio at 48 h&item= C[C@]12CC[C@H](NC(=O)CN3CCC(c4ccccc4)CC3)C[C@H]1CC[C@@H]1[C@@H]2CC[C@]2(C)[C@@H](C3=CC(=O)OC3)CC[C@]12O
OUT: 254

----------
Experiment: Inhibition of porcine cortex Na+/K+-ATPase alpha1/2/3 subunit using ATP as substrate preincubated for 30 mins followed by substrate addition and measured after 30 mins by malachite green reagent-based assay
Parameters: species or system Sus scrofa
measurement kind: IC50 (µM)
Answer format: numeric, µM implied, no suffix.

IN: GET /values?readout=IC50&item= CC(=O)OC[C@H]1O[C@H](OCc2cn([C@H]3CC[C@@]4(C)[C@H](CC[C@@H]5[C@@H]4CC[C@]4(C)[C@@H](C6=CC(=O)OC6)CC[C@]54O)C3)nn2)[C@@H](OC(C)=O)[C@@H](OC(C)=O)[C@@H]1OC(C)=O
OUT: 4.46

IN: GET /values?readout=IC50&item= C[C@]12CC[C@H](n3cc(CO[C@H]4O[C@H](CO)[C@@H](O)[C@H](O)[C@@H]4O)nn3)C[C@H]1CC[C@@H]1[C@@H]2CC[C@]2(C)[C@@H](C3=CC(=O)OC3)CC[C@]12O
OUT: 5.47

IN: GET /values?readout=IC50&item= C[C@]12CC[C@H](NC(=O)CNCCO)C[C@H]1CC[C@@H]1[C@@H]2CC[C@]2(C)[C@@H](C3=CC(=O)OC3)CC[C@]12O
OUT: 1.99

IN: GET /values?readout=IC50&item= C[C@]12CC[C@H](NC(=O)CN3CCC(c4ccccc4)CC3)C[C@H]1CC[C@@H]1[C@@H]2CC[C@]2(C)[C@@H](C3=CC(=O)OC3)CC[C@]12O
OUT: 6.59

IN: GET /values?readout=IC50&item= C[C@]12CC[C@H](NC(=O)CO)C[C@H]1CC[C@@H]1[C@@H]2CC[C@]2(C)[C@@H](C3=CC(=O)OC3)CC[C@]12O
OUT: 0.843

----------
Please respond with reported selectivity ratio at 48 h for every item in the list.
Assay: Selectivity index, ratio of Cytotoxicity against African green monkey Vero cells assessed as reduction in cell viability after 48 hrs by SRB assay to Antiviral activity against Herpes simplex virus 2-333 infected in African green monkey Vero cells assessed as inhibition of viral replication after 48 hrs by naphthol blue-black staining-based plaque reduction assay
Format: toxicity
Settings: Vero cells infected with HSV-2 333, read-out: Ratio CC50/IC50
Reply with the value as a number alone.

IN: GET /values?readout=selectivity ratio at 48 h&item= C[C@]12CC[C@H](NC(=O)CNc3ccc(Cl)cc3)C[C@H]1CC[C@@H]1[C@@H]2CC[C@]2(C)[C@@H](C3=CC(=O)OC3)CC[C@]12O
OUT: 224

IN: GET /values?readout=selectivity ratio at 48 h&item= C[C@]12CC[C@H](NC(=O)CN3CCC(c4ccccc4)CC3)C[C@H]1CC[C@@H]1[C@@H]2CC[C@]2(C)[C@@H](C3=CC(=O)OC3)CC[C@]12O
OUT: 228

IN: GET /values?readout=selectivity ratio at 48 h&item= C[C@]12CC[C@H](NC(=O)CCl)C[C@H]1CC[C@@H]1[C@@H]2CC[C@]2(C)[C@@H](C3=CC(=O)OC3)CC[C@]12O
OUT: 61.3

IN: GET /values?readout=selectivity ratio at 48 h&item= CC(=O)OC[C@H]1O[C@H](OCc2cn([C@H]3CC[C@@]4(C)[C@H](CC[C@@H]5[C@@H]4CC[C@]4(C)[C@@H](C6=CC(=O)OC6)CC[C@]54O)C3)nn2)[C@@H](OC(C)=O)[C@@H](OC(C)=O)[C@@H]1OC(C)=O
OUT: 86.4

IN: GET /values?readout=selectivity ratio at 48 h&item= CC(=O)OC[C@H]1O[C@H](O[C@H]2[C@H](OC(C)=O)[C@@H](OC(C)=O)[C@H](OCc3cn([C@H]4CC[C@@]5(C)[C@H](CC[C@@H]6[C@@H]5CC[C@]5(C)[C@@H](C7=CC(=O)OC7)CC[C@]65O)C4)nn3)O[C@@H]2COC(C)=O)[C@H](OC(C)=O)[C@@H](OC(C)=O)[C@@H]1OC(C)=O
OUT: 18.5

IN: GET /values?readout=selectivity ratio at 48 h&item= C[C@]12CC[C@H](n3cc(CO[C@@H]4O[C@H](CO)[C@H](O)[C@H](O)[C@H]4O)nn3)C[C@H]1CC[C@@H]1[C@@H]2CC[C@]2(C)[C@@H](C3=CC(=O)OC3)CC[C@]12O
OUT: 234

IN: GET /values?readout=selectivity ratio at 48 h&item= C[C@]12CC[C@H](n3cc(CO[C@@H]4O[C@H](CO)[C@@H](O[C@H]5O[C@H](CO)[C@@H](O)[C@H](O)[C@H]5O)[C@H](O)[C@H]4O)nn3)C[C@H]1CC[C@@H]1[C@@H]2CC[C@]2(C)[C@@H](C3=CC(=O)OC3)CC[C@]12O
OUT: 35.2

IN: GET /values?readout=selectivity ratio at 48 h&item= CC(=O)OC[C@H]1O[C@@H](OCc2cn([C@H]3CC[C@@]4(C)[C@H](CC[C@@H]5[C@@H]4CC[C@]4(C)[C@@H](C6=CC(=O)OC6)CC[C@]54O)C3)nn2)[C@H](OC(C)=O)[C@@H](OC(C)=O)[C@@H]1OC(C)=O
OUT: 75.1

IN: GET /values?readout=selectivity ratio at 48 h&item= C[C@]12CC[C@H](O)C[C@H]1CC[C@@H]1[C@@H]2CC[C@]2(C)[C@@H](C3=CC(=O)OC3)CC[C@]12O
OUT: 8.53

----------
Assay: Cytotoxicity against African green monkey Vero cells assessed as reduction in cell viability after 48 hrs by SRB assay
Assay type: cell-based
Settings: chlorocebus sabaeus
Response field label: string, one of Fulfilled (CC50 at 48 h strictly below 300 µM) or Not fulfilled.

IN: Hello, I'm reviewing records and need to know if CC50 at 48 h of C[C@]12CC[C@H](NC(=O)CO)C[C@H]1CC[C@@H]1[C@@H]2CC[C@]2(C)[C@@H](C3=CC(=O)OC3)CC[C@]12O is below 300 µM. Could you check?
OUT: Not fulfilled

IN: Hello, I'm reviewing records and need to know if CC50 at 48 h of C[C@]12CC[C@H](NC(=O)CN3CCC(c4ccccc4)CC3)C[C@H]1CC[C@@H]1[C@@H]2CC[C@]2(C)[C@@H](C3=CC(=O)OC3)CC[C@]12O is below 300 µM. Could you check?
OUT: Fulfilled

IN: Hello, I'm reviewing records and need to know if CC50 at 48 h of C[C@]12CC[C@H](NC(=O)CNCCO)C[C@H]1CC[C@@H]1[C@@H]2CC[C@]2(C)[C@@H](C3=CC(=O)OC3)CC[C@]12O is below 300 µM. Could you check?
OUT: Not fulfilled

IN: Hello, I'm reviewing records and need to know if CC50 at 48 h of C[C@]12CC[C@H](n3cc(CO[C@H]4O[C@H](CO)[C@@H](O)[C@H](O)[C@@H]4O)nn3)C[C@H]1CC[C@@H]1[C@@H]2CC[C@]2(C)[C@@H](C3=CC(=O)OC3)CC[C@]12O is below 300 µM. Could you check?
OUT: Not fulfilled

IN: Hello, I'm reviewing records and need to know if CC50 at 48 h of CC(=O)OC[C@H]1O[C@H](OCc2cn([C@H]3CC[C@@]4(C)[C@H](CC[C@@H]5[C@@H]4CC[C@]4(C)[C@@H](C6=CC(=O)OC6)CC[C@]54O)C3)nn2)[C@@H](OC(C)=O)[C@@H](OC(C)=O)[C@@H]1OC(C)=O is below 300 µM. Could you check?
OUT: Not fulfilled

IN: Hello, I'm reviewing records and need to know if CC50 at 48 h of C[C@]12CC[C@H](NC(=O)CNc3ccc(Cl)cc3)C[C@H]1CC[C@@H]1[C@@H]2CC[C@]2(C)[C@@H](C3=CC(=O)OC3)CC[C@]12O is below 300 µM. Could you check?
OUT: Not fulfilled

IN: Hello, I'm reviewing records and need to know if CC50 at 48 h of C[C@@H](O)[C@H](O)[C@@H](O)CCN[C@H]1CC[C@@]2(C)[C@H](CC[C@@H]3[C@@H]2CC[C@]2(C)[C@@H](C4=CC(=O)OC4)CC[C@]32O)C1 is below 300 µM. Could you check?
OUT: Not fulfilled

IN: Hello, I'm reviewing records and need to know if CC50 at 48 h of Nc1nc2c(ncn2COCCO)c(=O)[nH]1 is below 300 µM. Could you check?
OUT: Not fulfilled

IN: Hello, I'm reviewing records and need to know if CC50 at 48 h of CC(=O)OC[C@H]1O[C@@H](OCc2cn([C@H]3CC[C@@]4(C)[C@H](CC[C@@H]5[C@@H]4CC[C@]4(C)[C@@H](C6=CC(=O)OC6)CC[C@]54O)C3)nn2)[C@H](OC(C)=O)[C@@H](OC(C)=O)[C@H]1OC(C)=O is below 300 µM. Could you check?
OUT: Fulfilled

IN: Hello, I'm reviewing records and need to know if CC50 at 48 h of CC(=O)OC[C@H]1O[C@@H](OCc2cn([C@H]3CC[C@@]4(C)[C@H](CC[C@@H]5[C@@H]4CC[C@]4(C)[C@@H](C6=CC(=O)OC6)CC[C@]54O)C3)nn2)[C@H](OC(C)=O)[C@@H](OC(C)=O)[C@@H]1OC(C)=O is below 300 µM. Could you check?
OUT: Fulfilled

IN: Hello, I'm reviewing records and need to know if CC50 at 48 h of C[C@]12CC[C@H](n3cc(CO[C@@H]4O[C@H](CO)[C@@H](O)[C@H](O)[C@H]4O)nn3)C[C@H]1CC[C@@H]1[C@@H]2CC[C@]2(C)[C@@H](C3=CC(=O)OC3)CC[C@]12O is below 300 µM. Could you check?
OUT: Not fulfilled

IN: Hello, I'm reviewing records and need to know if CC50 at 48 h of C[C@]12CC[C@H](NC(=O)CBr)C[C@H]1CC[C@@H]1[C@@H]2CC[C@]2(C)[C@@H](C3=CC(=O)OC3)CC[C@]12O is below 300 µM. Could you check?
OUT: Fulfilled

IN: Hello, I'm reviewing records and need to know if CC50 at 48 h of C[C@]12CC[C@H](O)C[C@H]1CC[C@@H]1[C@@H]2CC[C@]2(C)[C@@H](C3=CC(=O)OC3)CC[C@]12O is below 300 µM. Could you check?
OUT: Fulfilled
